Data origin, for the record: the supplement of paper PMC10126150

Readings of switch fluorescence ratio for the listed sequences
system: ATP; assay: switch fluorescence ratio, 500 uM ATP over buffer (Cy3 cluster intensity, sum of 5 cycles each) (fold (ratio)); higher = stronger signal-on switching upon ATP binding; sequences stand for … in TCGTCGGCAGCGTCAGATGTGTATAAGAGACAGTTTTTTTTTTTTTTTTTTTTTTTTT…TC; conditions: aptamer strand: ATP DNA aptamer (quencher-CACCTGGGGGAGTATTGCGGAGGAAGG + anchor), 100 nM annealed; ATP concentration: 500 uM;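 also: ATP exposure 15 min at 22 °C before imaging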
Attribute Measured: switch fluorescence ratio

• TATGGTAGC = 0.989
• TTATTAAAAG = 1.2
• TGGTTCGGTG = 0.977
• GGTGTGTTTG = 1.01
• GGAGGTTGGC = 1.02
• TGTTGCCGTT = 0.886
• GTTAGCACCC = 1.04
• GGGTACGTCG = 0.996
• GAAAAATGCC = 1.05
• TATGGTCTTA = 0.987
• GGCAGACGGT = 1.01
• TTGGGTATAA = 0.989
• AAGGGGGTTG = 0.975
• TTGTTCGGGA = 1.02
• CATCGGGGTT = 1.01
• ATGTATGTTA = 0.978
• TTGTAAACGA = 1.01
• AATTAACCCA = 1.05
• AATCATGGT = 0.978
• TTTCGTGGAG = 0.996
• TACCAGAGCA = 1.08
• CTCGTTGGGG = 0.979
• TCGGGTTCGG = 0.992
• CCAGATGGCA = 1.02
• CAGTTCGGGG = 0.973
